Measured On: Purified recombinant human PCSK9 (His-tagged, BPS Biosciences) (human) (UniProt Q8NBP7)
Sequence (Q8NBP7 31-692 limits assumed): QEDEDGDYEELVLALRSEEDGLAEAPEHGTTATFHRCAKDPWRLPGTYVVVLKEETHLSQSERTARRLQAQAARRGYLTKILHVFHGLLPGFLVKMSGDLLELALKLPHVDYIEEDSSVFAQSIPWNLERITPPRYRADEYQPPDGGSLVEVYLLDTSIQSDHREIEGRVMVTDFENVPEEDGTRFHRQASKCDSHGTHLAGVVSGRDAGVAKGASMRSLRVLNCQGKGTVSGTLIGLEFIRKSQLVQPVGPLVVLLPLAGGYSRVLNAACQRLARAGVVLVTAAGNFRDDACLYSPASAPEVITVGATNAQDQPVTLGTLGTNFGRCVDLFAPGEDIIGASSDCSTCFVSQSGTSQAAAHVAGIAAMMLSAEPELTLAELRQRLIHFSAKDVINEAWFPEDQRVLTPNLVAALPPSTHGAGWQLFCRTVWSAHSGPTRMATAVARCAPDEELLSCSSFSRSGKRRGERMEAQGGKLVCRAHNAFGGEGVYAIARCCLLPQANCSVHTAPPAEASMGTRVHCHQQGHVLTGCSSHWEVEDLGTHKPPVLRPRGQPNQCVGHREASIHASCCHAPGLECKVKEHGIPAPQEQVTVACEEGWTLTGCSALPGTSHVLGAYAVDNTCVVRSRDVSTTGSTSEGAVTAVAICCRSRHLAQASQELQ
Assay Explanation: SPR (Biacore T200), PCSK9 amine-coupled on chip, peptide at 100 µM
Non-standard residues stand in square brackets, D forms with d. No end group written: not given here. Aib = CC(C)(N)C(=O)O
Assign Condition met whenever Binding - Response Unit (RU) does not fall below 20 RU; assign Condition not met whenever it does.

I'd appreciate it if you could say whether SIPWN[Aib]ERITPC [Short chain peptide Seq. ID. No. 10 (SIPWN-Aib-ERITPC)] has Binding - Response Unit (RU) at least equal to 20 RU. Condition not met
